# Study system: BSA (Bos taurus, UniProt P02769)
# Measurement description: BSA fluorescence quenching titration
# Format: binding, bovine
# Reported conditions: BSA, τ0 = 10^−8 s
Value type: Kq (SV method I), BSA (M⁻¹ s⁻¹)
Kindly provide the numeric value in M⁻¹ s⁻¹ only, without the unit symbol.

- Chemical structure: "[Ni+2].[O-]c1ccccc1N=Cc1ccc(N2CCOCC2)cc1.[O-]c1ccccc1N=Cc1ccc(N2CCOCC2)cc1.c1ccc(-c2ccccn2)nc1"
  Kq (SV method I), BSA / M⁻¹ s⁻¹: "4.8055e+12"
- Chemical structure: "[Mn+2].[O-]c1ccccc1N=Cc1ccc(N2CCOCC2)cc1.[O-]c1ccccc1N=Cc1ccc(N2CCOCC2)cc1.c1ccc(-c2ccccn2)nc1"
  Kq (SV method I), BSA / M⁻¹ s⁻¹: "4.651e+12"
- Chemical structure: "[Co+2].[O-]c1ccccc1N=Cc1ccc(N2CCOCC2)cc1.[O-]c1ccccc1N=Cc1ccc(N2CCOCC2)cc1.c1ccc(-c2ccccn2)nc1"
  Kq (SV method I), BSA / M⁻¹ s⁻¹: "7.074e+12"

Okay, now this molecule:
Tell me Kq (SV method I), BSA reported for Oc1ccccc1N=Cc1ccc(N2CCOCC2)cc1 2.639e+12

###

# Measurement description: Nitric oxide scavenging assay
# Type: biochemical
# Reported conditions: 160 µM, 546 nm
Note to self: % Inhibition, nitric oxide under 40% means Yes, ties and anything higher get No.

- Compound: "O=C1O[C@H]([C@@H](O)CO)C(O)=C1O [Ascorbic acid, ascorbic acid, reference compound]"
  Class name: "No"
- Compound: "[Mn+2].[O-]c1ccccc1N=Cc1ccc(N2CCOCC2)cc1.[O-]c1ccccc1N=Cc1ccc(N2CCOCC2)cc1.c1ccc(-c2ccccn2)nc1 [(1)]"
  Class name: "Yes"
- Compound: "[Ni+2].[O-]c1ccccc1N=Cc1ccc(N2CCOCC2)cc1.[O-]c1ccccc1N=Cc1ccc(N2CCOCC2)cc1.c1ccc(-c2ccccn2)nc1 [(3)]"
  Class name: "Yes"

Read the next record carefully.
Please determine if Oc1ccccc1N=Cc1ccc(N2CCOCC2)cc1 [(HL), 2-(4-morpholinobenzylideneamino)phenol] is below 40% in terms of % Inhibition, nitric oxide. Yes

###

# Study system: BSA (Bos taurus)
# Measurement description: BSA fluorescence quenching titration
# Type: binding, bovine
# Reported conditions: BSA
As shown below, each of these compounds has a reported KSV (SV method I), BSA value.
Kindly provide the numeric value in M⁻¹ only, without the unit symbol.

// solved cases for KSV (SV method I), BSA follow
- Chemical structure: "Oc1ccccc1N=Cc1ccc(N2CCOCC2)cc1"
  Study system: "BSA (Bos taurus)"
  KSV (SV method I), BSA / M⁻¹: 26390
- Chemical structure: "[Co+2].[O-]c1ccccc1N=Cc1ccc(N2CCOCC2)cc1.[O-]c1ccccc1N=Cc1ccc(N2CCOCC2)cc1.c1ccc(-c2ccccn2)nc1"
  Study system: "BSA (Bos taurus)"
  KSV (SV method I), BSA / M⁻¹: 70740
- Chemical structure: "[Mn+2].[O-]c1ccccc1N=Cc1ccc(N2CCOCC2)cc1.[O-]c1ccccc1N=Cc1ccc(N2CCOCC2)cc1.c1ccc(-c2ccccn2)nc1"
  Study system: "BSA (Bos taurus)"
  KSV (SV method I), BSA / M⁻¹: 46510

Okay, now this compound:
Tell me KSV (SV method I), BSA reported for [Ni+2].[O-]c1ccccc1N=Cc1ccc(N2CCOCC2)cc1.[O-]c1ccccc1N=Cc1ccc(N2CCOCC2)cc1.c1ccc(-c2ccccn2)nc1 48060

###

# Measurement description: Nitric oxide scavenging assay
# Format: biochemical
# Reported conditions: 40 µM, 546 nm
As shown below, each of these compounds has a reported % Inhibition, nitric oxide value.
Kindly provide the numeric value in % only, without the unit symbol.

- Compound: "[Ni+2].[O-]c1ccccc1N=Cc1ccc(N2CCOCC2)cc1.[O-]c1ccccc1N=Cc1ccc(N2CCOCC2)cc1.c1ccc(-c2ccccn2)nc1"
  Value type: "% Inhibition, nitric oxide"
  Measurement: 14.72
- Compound: "[Mn+2].[O-]c1ccccc1N=Cc1ccc(N2CCOCC2)cc1.[O-]c1ccccc1N=Cc1ccc(N2CCOCC2)cc1.c1ccc(-c2ccccn2)nc1"
  Value type: "% Inhibition, nitric oxide"
  Measurement: 13.14
- Compound: "O=C1O[C@H]([C@@H](O)CO)C(O)=C1O [Ascorbic acid, ascorbic acid, reference compound]"
  Value type: "% Inhibition, nitric oxide"
  Measurement: 28.55
- Compound: "Oc1ccccc1N=Cc1ccc(N2CCOCC2)cc1"
  Value type: "% Inhibition, nitric oxide"
  Measurement: 11.42

Okay, now this compound:
Tell me % Inhibition, nitric oxide reported for [Co+2].[O-]c1ccccc1N=Cc1ccc(N2CCOCC2)cc1.[O-]c1ccccc1N=Cc1ccc(N2CCOCC2)cc1.c1ccc(-c2ccccn2)nc1 14.72

###

# Tested on: NHDF
# Measurement description: MTT cell viability assay, NHDF
# Format: cell-based, human
# Reported conditions: NHDF normal cells, 72 h of exposure
As shown below, each of these compounds has a reported pIC50 value.
Conceptually, pIC50 converts a concentration in mol/L into minus its log10.

// solved cases for pIC50 follow
- Compound: "[Co+2].[O-]c1ccccc1N=Cc1ccc(N2CCOCC2)cc1.[O-]c1ccccc1N=Cc1ccc(N2CCOCC2)cc1.c1ccc(-c2ccccn2)nc1"
  pIC50: 4.13
- Compound: "[Ni+2].[O-]c1ccccc1N=Cc1ccc(N2CCOCC2)cc1.[O-]c1ccccc1N=Cc1ccc(N2CCOCC2)cc1.c1ccc(-c2ccccn2)nc1"
  pIC50: 4.13
- Compound: "[Mn+2].[O-]c1ccccc1N=Cc1ccc(N2CCOCC2)cc1.[O-]c1ccccc1N=Cc1ccc(N2CCOCC2)cc1.c1ccc(-c2ccccn2)nc1"
  pIC50: 4.12

Okay, now this compound:
Tell me pIC50 reported for N.N.[Cl][Pt][Cl] [Cisplatin, cisplatin, reference compound] 4.57

###

# Study system: BSA (Bos taurus, UniProt P02769)
# Measurement description: FRET computation, donor (BSA)–acceptor (compound)
# Assay type: binding, bovine
Value type: J (spectral overlap integral)

// solved cases for J (spectral overlap integral) follow
- Chemical structure: "[Co+2].[O-]c1ccccc1N=Cc1ccc(N2CCOCC2)cc1.[O-]c1ccccc1N=Cc1ccc(N2CCOCC2)cc1.c1ccc(-c2ccccn2)nc1"
  J (spectral overlap integral): "1.0201 × 10^−14 (LM^−1 cm^3)"
- Chemical structure: "[Ni+2].[O-]c1ccccc1N=Cc1ccc(N2CCOCC2)cc1.[O-]c1ccccc1N=Cc1ccc(N2CCOCC2)cc1.c1ccc(-c2ccccn2)nc1"
  J (spectral overlap integral): "1.0145 × 10^−14 (LM^−1 cm^3)"
- Chemical structure: "[Mn+2].[O-]c1ccccc1N=Cc1ccc(N2CCOCC2)cc1.[O-]c1ccccc1N=Cc1ccc(N2CCOCC2)cc1.c1ccc(-c2ccccn2)nc1"
  J (spectral overlap integral): "1.0886 × 10^−14 (LM^−1 cm^3)"

Okay, now this compound:
Tell me J (spectral overlap integral) reported for Oc1ccccc1N=Cc1ccc(N2CCOCC2)cc1 0.8215 × 10^−14 (LM^−1 cm^3)

###

# Tested on: CT-DNA
# Measurement description: DNA binding by viscometric (hydrodynamic) technique
# Reported conditions: [complex]/[DNA] = 0.6
As shown below, each of these molecules has a reported Relative specific viscosity (η/η0)^1/3 value.
# output: bare number, no unit

- Molecule: "[Ni+2].[O-]c1ccccc1N=Cc1ccc(N2CCOCC2)cc1.[O-]c1ccccc1N=Cc1ccc(N2CCOCC2)cc1.c1ccc(-c2ccccn2)nc1"
  Measurement: 0.92

Tell me Relative specific viscosity (η/η0)^1/3 reported for [Mn+2].[O-]c1ccccc1N=Cc1ccc(N2CCOCC2)cc1.[O-]c1ccccc1N=Cc1ccc(N2CCOCC2)cc1.c1ccc(-c2ccccn2)nc1 0.88

Tell me Relative specific viscosity (η/η0)^1/3 reported for [Co+2].[O-]c1ccccc1N=Cc1ccc(N2CCOCC2)cc1.[O-]c1ccccc1N=Cc1ccc(N2CCOCC2)cc1.c1ccc(-c2ccccn2)nc1 1.05

Tell me Relative specific viscosity (η/η0)^1/3 reported for CC[n+]1c(-c2ccccc2)c2cc(N)ccc2c2ccc(N)cc21 [EB, ethidium bromide, reference compound] 1.63

Tell me Relative specific viscosity (η/η0)^1/3 reported for Oc1ccccc1N=Cc1ccc(N2CCOCC2)cc1 0.75

###

# Test system: CT-DNA
# Measurement description: DNA binding by UV-vis absorption titration
# Reported conditions: pH 7.4, 25 °C
Value type: Kb, SK-I (Sakthi–Krause method I) (M⁻¹)
Kindly provide the numeric value in M⁻¹ only, without the unit symbol.

Tell me Kb, SK-I (Sakthi–Krause method I) reported for [Mn+2].[O-]c1ccccc1N=Cc1ccc(N2CCOCC2)cc1.[O-]c1ccccc1N=Cc1ccc(N2CCOCC2)cc1.c1ccc(-c2ccccn2)nc1 11049

Tell me Kb, SK-I (Sakthi–Krause method I) reported for Oc1ccccc1N=Cc1ccc(N2CCOCC2)cc1 8775

Tell me Kb, SK-I (Sakthi–Krause method I) reported for [Ni+2].[O-]c1ccccc1N=Cc1ccc(N2CCOCC2)cc1.[O-]c1ccccc1N=Cc1ccc(N2CCOCC2)cc1.c1ccc(-c2ccccn2)nc1 13001

Tell me Kb, SK-I (Sakthi–Krause method I) reported for [Co+2].[O-]c1ccccc1N=Cc1ccc(N2CCOCC2)cc1.[O-]c1ccccc1N=Cc1ccc(N2CCOCC2)cc1.c1ccc(-c2ccccn2)nc1 14965
